Entries and their IC50 values follow.
testMethodNotes: Photocytotoxicity against mouse NIH/3T3 cells assessed as reduction in cell viability preincubated for 24 hrs followed by washout and 1 J/cm2 light irradiation for 24 hrs by resazurin reduction assay
Format: toxicity, cell-based, NIH3T3
Give the number; µM is assumed, so skip it.

compound: [N-]=[N+]=NCc1cc2n(n1)CC1c3nc(c(-c4cccc(O)c4)c4ccc([nH]4)c(-c4cccc(O)c4)c4nc(c(-c5cccc(O)c5)c5ccc([nH]5)c3-c3cccc(O)c3)C=C4)C1C2 (stereo not drawn)
IC50, µM: 0.0931

compound: COC(=O)c1cc2n(n1)CC1c3nc(c(-c4cccc(O)c4)c4ccc([nH]4)c(-c4cccc(O)c4)c4nc(c(-c5cccc(O)c5)c5ccc([nH]5)c3-c3cccc(O)c3)C=C4)C1C2 (stereo not drawn)
IC50, µM: 0.109

Problem: Fill in IC50 for record OCc1cc2n(n1)CC1c3nc(c(-c4cccc(O)c4)c4ccc([nH]4)c(-c4cccc(O)c4)c4nc(c(-c5cccc(O)c5)c5ccc([nH]5)c3-c3cccc(O)c3)C=C4)C1C2 (stereo not drawn)
Solution: 0.107
